Values were extracted from patent US9243044B2.

System: normal human plasma
Test: aPTT assay in normal human plasma
Type: biochemical
Conditions: 500 nM; ratio of mean aPTT to blank control
# multiples of prolonging aPTT annotations
Please respond with just the number, no unit label.

{"MOLECULE": "NAPTin-2 (protein, Sequence derived from Ancylostoma caninum or Synthetic) NPSCGENERHDECSRKECDPKCKYDGTEEKDDEKPVVCLTRVCYGDCICRDGFLRNKNGACVKAEDCELDN", "ENDPOINT_RESULT": 5.53}
{"MOLECULE": "NAPTin-5 (protein, Sequence derived from Ancylostoma caninum or Synthetic) NPSCGENERHDECSRKECDPKCKYDGTEEKDDEKPVVCLTRVCYGDCICRDGFLRNKNGACVKAEDCEL", "ENDPOINT_RESULT": 5.66}
{"MOLECULE": "NAPTin-8 (protein, Sequence derived from Ancylostoma caninum or Synthetic) NPSCGENERHDECSRKECDPKCKYDGTEEKDDEKPVVCLTRVCYGDCICRDGFLRNKNGACVKAEDCELDNMEF", "ENDPOINT_RESULT": 5.95}
{"MOLECULE": "NAPTin-4 (protein, Sequence derived from Ancylostoma caninum or Synthetic) NPSCGENERHDECSRKECDPKCKYDGTEEKDDEKPVVCLTRVCYGDCICRDGFLRNKNGACVKAEDCELDNME", "ENDPOINT_RESULT": 5.82}
{"MOLECULE": "NAPTin-3 (protein, Sequence derived from Ancylostoma caninum or Synthetic) NPSCGENERHDECSRKECDPKCKYDGTEEKDDEKPVVCLTRVCYGDCICRDGFLRNKNGACVKAEDCELDNM", "ENDPOINT_RESULT": 5.47}

Reported multiples of prolonging aPTT, molecule NAPTin-7 (protein, Sequence derived from Ancylostoma caninum or Synthetic) NPSCGENERHDECSRKECDPKCKYDGTEEKDDEKPVVCLTRVCYGDCICRDGFLRNKNGACVKAEDC : ____ 5.44

Similarly, NAPTin-6 (protein, Sequence derived from Ancylostoma caninum or Synthetic) NPSCGENERHDECSRKECDPKCKYDGTEEKDDEKPVVCLTRVCYGDCICRDGFLRNKNGACVKAEDCE ? 5.37
